- System: 4.7C antibody
- Sequence (as listed by the source, other chains not shown): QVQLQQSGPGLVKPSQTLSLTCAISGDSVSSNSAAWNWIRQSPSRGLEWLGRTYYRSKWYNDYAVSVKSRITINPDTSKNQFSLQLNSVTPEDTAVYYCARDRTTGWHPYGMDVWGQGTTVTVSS
- Sequence (as listed by the source, other chains not shown): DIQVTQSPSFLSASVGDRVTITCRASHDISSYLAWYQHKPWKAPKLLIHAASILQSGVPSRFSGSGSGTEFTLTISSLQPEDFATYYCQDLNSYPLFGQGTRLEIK
- procedure-summary: FACS of antibody binding to peptides pulsed onto DQ2.5+ Raji cells, 4.7C antibody
- Type: cell-based
- recorded-conditions: 50 μM peptide pulsed onto human DQ2.5+ Raji cells
readout: binding of 4.7C antibody to peptide-pulsed Raji cells (FACS)

[
  {
    "seq": "PQQPYPEQEQPYGT (SEQ ID NO:63) [EE]",
    "measurement": "bind well"
  },
  {
    "seq": "PQQPYPQQEQPYGT (SEQ ID NO:29)",
    "measurement": "bind well"
  }
]

From: patent US20240400692A1
